All figures here come from PubChem BioAssay (NCATS).

# Experiment Notes: qHTS assay for small molecule agonists of retinoid X receptor alpha signaling (AID 588544)
# Stated Conditions: HEK293T RXRa-UAS-bla, beta-lactamase reporter, 18 h; 530 nm emission
Records with an inconclusive call do not appear.

>  <Molecule>
COCC(=O)N(c1c(C)cccc1C)C(C)C(=O)OC (stereo not given)

>  <max response>
3.24%

$$$$
>  <Molecule>
Oc1c(Br)cc(Br)cc1Br

>  <max response>
-20.6%

$$$$
>  <Molecule>
CCCCCCCCC(=O)NCc1ccc(O)c(OC)c1

>  <max response>
2.94%

$$$$
>  <Molecule>
C[C@@H]1C[C@@H]([C@H](O)CC2CC(=O)NC(=O)C2)C(=O)[C@@H](C)C1

>  <max response>
-10.1%

$$$$
>  <Molecule>
C[C@H]1C(=O)O[C@@H]2CCN3CC=C(COC(=O)[C@](C)(O)[C@]1(C)O)[C@H]23

>  <max response>
-6.89%

$$$$

====

# Experiment Notes: NS1 protein of Zika virus - qHTS assay to identify small molecule inhibitors in human HEK 293 cells (AID 1347053);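 also: plate controls were infected untreated cells for no effect and uninfected cells for full effect; nearly all actives have a fitted effect of over 55% in size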
# Stated Conditions: HEK293 ZIKV MR766 infection, NS1 TR-FRET, 24 h; series mostly up to 46.1 µM
Inconclusive results are not listed. The source made the active and inactive calls. The call rests on the fitted dose curve; in most records, active means well fitted inhibition curve with a large enough effect; inconclusive means small, poorly fitted or top-dose-only effect; inactive means no such curve, though single readings can be large or run the other way.

>  <Compound>
C=CCN1CC[C@]23CCCC[C@H]2[C@H]1Cc1ccc(O)cc13

>  <outcome>
inactive

$$$$
>  <Compound>
CCOC(=O)C1(c2ccccc2)CCN(CCc2ccc(N)cc2)CC1

>  <outcome>
inactive

$$$$
>  <Compound>
CCC1(c2cccc(O)c2)CCCCN(C)C1 (stereo not given)

>  <outcome>
inactive

$$$$
>  <Compound>
CC1=C2[C@H]3OC(=O)[C@@H](C)[C@@H]3CC[C@@]2(C)C=CC1=O

>  <outcome>
inactive

$$$$
>  <Compound>
Nc1ccc(N)cc1

>  <outcome>
inactive

$$$$
>  <Compound>
OC(O)C(Cl)(Cl)Cl

>  <outcome>
inactive

$$$$
>  <Compound>
C[C@H](CN1CCOCC1)C(C(=O)N1CCCC1)(c1ccccc1)c1ccccc1

>  <outcome>
inactive

$$$$
>  <Compound>
COc1cc(C[C@@H](C)N)c(OC)cc1Br

>  <outcome>
inactive

$$$$
>  <Compound>
CN1CCC(N(Cc2ccccc2)c2ccccc2)CC1

>  <outcome>
inactive

$$$$
>  <Compound>
c1cc2c(c(N3CCNCC3)c1)OCCO2

>  <outcome>
inactive

$$$$
>  <Compound>
COc1ccc(CN2CCNCC2)c(OC)c1OC

>  <outcome>
inactive

$$$$
>  <Compound>
CCCOC(=O)Cc1ccc(OCC(=O)N(CC)CC)c(OC)c1

>  <outcome>
inactive

$$$$
>  <Compound>
NC(=O)CN1CCCC1=O

>  <outcome>
inactive

$$$$
>  <Compound>
C[C@]12CC[C@H]3[C@@H](CC=C4C[C@@H](O)CC[C@@]43C)[C@@H]1CC[C@@H]2O

>  <outcome>
inactive

$$$$
>  <Compound>
C[C@@H]1CC[C@H]2[C@@H](C)C(=O)O[C@@H]3O[C@@]4(C)CC[C@@H]1[C@]32OO4

>  <outcome>
inactive

$$$$
>  <Compound>
CC(C)=C[C@@H]1[C@@H](C(=O)OCc2coc(Cc3ccccc3)c2)C1(C)C

>  <outcome>
inactive

$$$$
>  <Compound>
O=C(CCCN1CCC(n2c(=O)[nH]c3ccccc32)CC1)c1ccc(F)cc1

>  <outcome>
inactive

$$$$
>  <Compound>
CN1C(=O)[C@@H](NC(=O)c2cc3ccccc3[nH]2)N=C(c2ccccc2)c2ccccc21

>  <outcome>
inactive

$$$$
>  <Compound>
C=CCOC(Cn1ccnc1)c1ccc(Cl)cc1Cl (stereo not given)

>  <outcome>
inactive

$$$$
>  <Compound>
NC1(c2ccccc2)CCCCC1

>  <outcome>
inactive

$$$$
>  <Compound>
C[N+]1(CCC(C(N)=O)(c2ccccc2)c2ccccc2)CCCCC1

>  <outcome>
inactive

$$$$
>  <Compound>
COc1cc(CC(C)N)c(OC)cc1Br (stereo not given)

>  <outcome>
inactive

$$$$
>  <Compound>
CCOC(=O)c1ncn2c1CN(C)C(=O)c1c(I)cccc1-2

>  <outcome>
inactive

$$$$
>  <Compound>
COc1ccc2c(C(=O)c3ccc(Cl)cc3)c(C)n(CC(=O)O)c2c1

>  <outcome>
inactive

$$$$
>  <Compound>
O=C(O)Cc1ccccc1

>  <outcome>
inactive

$$$$
